# Tested on: β-galactosidase in CMV-LacZ C2C12 myoblasts
# experiment.description: CMV-LacZ secondary screen in C2C12 myoblasts (β-Gal stabilizing assay)
# Type: cell-based, mouse
# experimental.context: 10 uM; CMV-LacZ C2C12 myoblasts
test.readout: CMV-LACZ in Myoblasts (β-galactosidase activity relative to DMSO)
Please give the numeric answer without any surrounding text.

[in] Write CMV-LACZ in Myoblasts (β-galactosidase activity relative to DMSO) of CC1CC(C)(C)NC(=S)N1CC(=O)N(C)Cc1ccccc1 (stereo not shown) ; system used: β-galactosidase in CMV-LacZ C2C12 myoblasts
[out] 1.0505

[in] Write CMV-LACZ in Myoblasts (β-galactosidase activity relative to DMSO) of CC1CCN(C(CNS(=O)(=O)c2ccccc2)c2ccccc2)CC1 (stereo not shown) ; system used: β-galactosidase in CMV-LacZ C2C12 myoblasts
[out] 0.9905

[in] Write CMV-LACZ in Myoblasts (β-galactosidase activity relative to DMSO) of `COC(=O)c1ccc(N=Nc2ccccc2)cc1` ; system used: β-galactosidase in CMV-LacZ C2C12 myoblasts
[out] 0.9125

[in] Write CMV-LACZ in Myoblasts (β-galactosidase activity relative to DMSO) of `Cc1ccccc1NC(=O)c1ccc2c(O)c(S(=O)(=O)c3ccccc3)c(=O)[nH]c2c1` ; system used: β-galactosidase in CMV-LacZ C2C12 myoblasts
[out] 0.8608

[in] Write CMV-LACZ in Myoblasts (β-galactosidase activity relative to DMSO) of CC(=O)C1=C(C)Nc2ncnn2C1c1ccc(C)cc1 (stereo not shown) ; system used: β-galactosidase in CMV-LacZ C2C12 myoblasts
[out] 0.6490

[in] Write CMV-LACZ in Myoblasts (β-galactosidase activity relative to DMSO) of `CCNC(=O)C(=O)Nc1cc2c3c(c1)CCN3C(=O)CC2` ; system used: β-galactosidase in CMV-LacZ C2C12 myoblasts
[out] 1.1494

[in] Write CMV-LACZ in Myoblasts (β-galactosidase activity relative to DMSO) of `Cc1ccc(NS(=O)(=O)c2cccc(C(=O)O)c2)cc1S(=O)(=O)N1CCOCC1` ; system used: β-galactosidase in CMV-LacZ C2C12 myoblasts
[out] 0.8087

[in] Write CMV-LACZ in Myoblasts (β-galactosidase activity relative to DMSO) of `CCOc1ccc2nc(Cl)sc2c1` ; system used: β-galactosidase in CMV-LacZ C2C12 myoblasts
[out] 0.8991

[in] Write CMV-LACZ in Myoblasts (β-galactosidase activity relative to DMSO) of `Cc1ccc(NS(=O)(=O)c2ccc(-c3ccc(=O)[nH]n3)o2)c(C)c1` ; system used: β-galactosidase in CMV-LacZ C2C12 myoblasts
[out] 1.0580

[in] Write CMV-LACZ in Myoblasts (β-galactosidase activity relative to DMSO) of `CN(/C(=N/S(=O)(=O)c1cccs1)c1ccccc1)c1ccccc1` ; system used: β-galactosidase in CMV-LacZ C2C12 myoblasts
[out] 1.0067

[in] Write CMV-LACZ in Myoblasts (β-galactosidase activity relative to DMSO) of `O=C(O)CC1(c2ccccc2)C(=O)c2ccccc2C1=O` ; system used: β-galactosidase in CMV-LacZ C2C12 myoblasts
[out] 1.0444

[in] Write CMV-LACZ in Myoblasts (β-galactosidase activity relative to DMSO) of `COc1cccc(CN2CCN(Cc3ccco3)CC2)c1.O=C(O)C(=O)O` ; system used: β-galactosidase in CMV-LacZ C2C12 myoblasts
[out] 0.8608

[in] Write CMV-LACZ in Myoblasts (β-galactosidase activity relative to DMSO) of `CN(CC(=O)Nc1cccc(F)c1)C(=O)c1ccc(-c2ccc(Cl)cc2)o1` ; system used: β-galactosidase in CMV-LacZ C2C12 myoblasts
[out] 0.6873

[in] Write CMV-LACZ in Myoblasts (β-galactosidase activity relative to DMSO) of CC(C(=O)Nc1ccc(C#N)cc1)N(C)CC(=O)Nc1cccc(F)c1 (stereo not shown) ; system used: β-galactosidase in CMV-LacZ C2C12 myoblasts
[out] 1.0219

[in] Write CMV-LACZ in Myoblasts (β-galactosidase activity relative to DMSO) of CC1CCCCC1NC(=O)CSc1nnc(COc2ccc(Cl)cc2)o1 (stereo not shown) ; system used: β-galactosidase in CMV-LacZ C2C12 myoblasts
[out] 1.0993

[in] Write CMV-LACZ in Myoblasts (β-galactosidase activity relative to DMSO) of `Cc1ccc(C(=O)N2CCN(S(=O)(=O)N3CCOCC3)CC2)cc1` ; system used: β-galactosidase in CMV-LacZ C2C12 myoblasts
[out] 0.8567

[in] Write CMV-LACZ in Myoblasts (β-galactosidase activity relative to DMSO) of `CCOC(=O)c1nnn(-c2nonc2OC)c1-c1ccccc1` ; system used: β-galactosidase in CMV-LacZ C2C12 myoblasts
[out] 1.0611

[in] Write CMV-LACZ in Myoblasts (β-galactosidase activity relative to DMSO) of `CCOC(=O)c1cc(-c2cccs2)nc2c1c(C)nn2-c1ccccn1` ; system used: β-galactosidase in CMV-LacZ C2C12 myoblasts
[out] 0.9076

[in] Write CMV-LACZ in Myoblasts (β-galactosidase activity relative to DMSO) of `CCCn1c(-c2cc(OC)c(OC)c(OC)c2)nc2c1c(=O)[nH]c(=O)n2Cc1ccccc1` ; system used: β-galactosidase in CMV-LacZ C2C12 myoblasts
[out] 0.9490

[in] Write CMV-LACZ in Myoblasts (β-galactosidase activity relative to DMSO) of `O=c1[nH]c(CN2CCCCC2)nc2c1C1(CCCCC1)Cc1ccccc1-2` ; system used: β-galactosidase in CMV-LacZ C2C12 myoblasts
[out] 1.2759

[in] Write CMV-LACZ in Myoblasts (β-galactosidase activity relative to DMSO) of `CC1(C)Cc2ccccc2-c2nc3n(c(=O)c21)CCS3` ; system used: β-galactosidase in CMV-LacZ C2C12 myoblasts
[out] 1.0199

[in] Write CMV-LACZ in Myoblasts (β-galactosidase activity relative to DMSO) of `CCOc1cc(C)c(S(=O)(=O)N2CCCCC2)cc1C` ; system used: β-galactosidase in CMV-LacZ C2C12 myoblasts
[out] 0.9207

[in] Write CMV-LACZ in Myoblasts (β-galactosidase activity relative to DMSO) of `Cn1cc(CN(CCO)Cc2cccs2)c(-c2ccccc2F)n1` ; system used: β-galactosidase in CMV-LacZ C2C12 myoblasts
[out] 1.1235

[in] Write CMV-LACZ in Myoblasts (β-galactosidase activity relative to DMSO) of CC(NC(=O)c1ccc(C(C)(C)C)cc1)C(c1cccs1)N1CCOCC1 (stereo not shown) ; system used: β-galactosidase in CMV-LacZ C2C12 myoblasts
[out] 1.1951

[in] Write CMV-LACZ in Myoblasts (β-galactosidase activity relative to DMSO) of `COC(=O)c1ccccc1NC(=O)CSc1nc(O)c(-c2ccccc2)c(=O)[nH]1` ; system used: β-galactosidase in CMV-LacZ C2C12 myoblasts
[out] 1.3023

[in] Write CMV-LACZ in Myoblasts (β-galactosidase activity relative to DMSO) of `CCCc1nnc(SCC(=O)NC2CCCC2)n1CCOC` ; system used: β-galactosidase in CMV-LacZ C2C12 myoblasts
[out] 1.0465

[in] Write CMV-LACZ in Myoblasts (β-galactosidase activity relative to DMSO) of `O=C(Nc1cc(-c2nc3ccccc3s2)ccc1Cl)c1ccc2c(c1)OCO2` ; system used: β-galactosidase in CMV-LacZ C2C12 myoblasts
[out] 0.9991

[in] Write CMV-LACZ in Myoblasts (β-galactosidase activity relative to DMSO) of `COc1ccccc1C(=O)Nc1ccnn1C1CCN(C(=O)c2ccoc2)CC1` ; system used: β-galactosidase in CMV-LacZ C2C12 myoblasts
[out] 1.1713

* * *

# System: α7 integrin (LacZ reporter in α7+/LacZ myotubes)
# experiment.description: Myotube α7 integrin FDG assay (Burkin assay in myotubes, 96-well)
# Format: cell-based, mouse
# experimental.context: myotubes, 1 uM
Assign class 1 to entries whose Burkin Assay in Myotubes, α7 integrin LacZ reporter signal relative to DMSO meets or exceeds 1; assign class 0 to the rest.

[in] In plain terms: is recorded Burkin Assay in Myotubes, α7 integrin LacZ reporter signal relative to DMSO at least 1 for `CCc1nnc(NC(=O)c2ccc(S(=O)(=O)NCC(C)C)cc2)s1` ?
[out] class 0

[in] In plain terms: is recorded Burkin Assay in Myotubes, α7 integrin LacZ reporter signal relative to DMSO at least 1 for CCCN(C(=O)c1ccc(S(=O)(=O)N2CCCC2)cc1)C1CCS(=O)(=O)C1 (stereo not drawn) ?
[out] class 0

[in] In plain terms: is recorded Burkin Assay in Myotubes, α7 integrin LacZ reporter signal relative to DMSO at least 1 for `COc1cc(C=O)ccc1OCC(=O)Nc1ccc2c(c1)OCO2` ?
[out] class 0

[in] In plain terms: is recorded Burkin Assay in Myotubes, α7 integrin LacZ reporter signal relative to DMSO at least 1 for `CCOn1c(=O)c(-c2ccccc2)[n+]([O-])c2ccccc21` ?
[out] class 1

[in] In plain terms: is recorded Burkin Assay in Myotubes, α7 integrin LacZ reporter signal relative to DMSO at least 1 for `CCCCN(CCCC)CCNC(=O)c1cn(C)c2ccc(S(=O)(=O)N(C)C3CCCCC3)cc2c1=O` ?
[out] class 1

[in] In plain terms: is recorded Burkin Assay in Myotubes, α7 integrin LacZ reporter signal relative to DMSO at least 1 for `Cc1ccc(C(=O)N2CCN(S(=O)(=O)N3CCOCC3)CC2)cc1` ?
[out] class 0

[in] In plain terms: is recorded Burkin Assay in Myotubes, α7 integrin LacZ reporter signal relative to DMSO at least 1 for `Cn1c(-c2ccccc2)cc2ccccc21` ?
[out] class 0

[in] In plain terms: is recorded Burkin Assay in Myotubes, α7 integrin LacZ reporter signal relative to DMSO at least 1 for `COc1ccc(Cl)cc1NC(=O)CC(=O)Nc1cc(Cl)ccc1OC` ?
[out] class 1

[in] In plain terms: is recorded Burkin Assay in Myotubes, α7 integrin LacZ reporter signal relative to DMSO at least 1 for `CCc1ccc(S(=O)(=O)NCCOc2cccc3cccnc23)cc1` ?
[out] class 1
